Tested on: MT4
Experiment: Concentration required to inhibit spread of native HIV-1(K-60) protease obtained from PI-resistant clinical isolate in MT-4 human T-lymphoid cells
Assay type: functional
Conditions: read-out: CIC95
# IC95 per record follows
Write the answer as a number in nM, unit excluded.

Some solved cases for reference:
Compound Smiles	IC95 [nM]
Cc1nnc(C[C@H](C[C@H](O)CN2CCN(Cc3ccc(-c4ccc(Cl)cc4)o3)C[C@H]2C(=O)NCC(F)(F)F)C(=O)N[C@H]2CCOC[C@H]2O)o1	31
Cc1nnc(C[C@H](C[C@H](O)CN2CCN(C(C)(C)c3ncc(-c4ccc(F)cc4)o3)C[C@H]2C(=O)NCC(F)(F)F)C(=O)N[C@H]2CCOC[C@H]2O)o1	125
COc1cncc(-c2cnc(C(C)(C)N3CCN(C[C@@H](O)C[C@@H](Cc4nnc(-c5ccccc5)o4)C(=O)N[C@H]4CCOC[C@H]4O)[C@H](C(=O)NCC(F)(F)F)C3)o2)c1	250
Cc1nnc(C[C@H](C[C@H](O)CN2CCN(C(C)(C)c3ncc(-c4ccc(Cl)cc4)o3)C[C@H]2C(=O)NCC(F)(F)F)C(=O)N[C@H]2CCOC[C@H]2O)o1	31
CC(C)(c1ncc(-c2ccc(Cl)cc2)o1)N1CCN(C[C@@H](O)C[C@@H](Cc2nnco2)C(=O)N[C@H]2CCOC[C@H]2O)[C@H](C(=O)NCC(F)(F)F)C1	63

Entry under test: CCCc1nnc(C[C@H](C[C@H](O)CN2CCN(C(C)(C)c3ncc(-c4cncc(OC)c4)o3)C[C@H]2C(=O)NCC(F)(F)F)C(=O)N[C@H]2CCOC[C@H]2O)o1 . Its IC95 was 500

IC95 recorded for this compound, CCCc1nnc(C[C@H](C[C@H](O)CN2CCN(C(C)(C)c3ncc(-c4ccc(Cl)cc4)o3)C[C@H]2C(=O)NCC(F)(F)F)C(=O)N[C@H]2CCOC[C@H]2O)o1 , is 16

response.value for CCCc1nnc(C[C@H](C[C@H](O)CN2CCN(C(C)(C)c3ncc(-c4ccc(F)cc4)o3)C[C@H]2C(=O)NCC(F)(F)F)C(=O)N[C@H]2CCOC[C@H]2O)o1 (field: IC95) = 16

====

Target: Human immunodeficiency virus type 1 protease (Human immunodeficiency virus 1)
Assay: Inhibitory concentration against HIV-1 protease (NL4-3)
Measured Attribute: IC50 (nM)
Record the value in nM, omitting the unit from your answer.

Check out these entries, answers already filled in.
>>> print(df.to_string())
                            compound_smiles  measurement
0  COc1cncc(-c2cnc(C(C)(C)N3CCN(C[C@@H](O)C[C@@H](Cc4nnco4)C(=O)N[C@H]4CCOC[C@H]4O)[C@H](C(=O)NCC(F)(F)F)C3)o2)c1         0.24
1  CCCc1nnc(C[C@H](C[C@H](O)CN2CCN(C(C)(C)c3ncc(-c4cncc(OC)c4)o3)C[C@H]2C(=O)NCC(F)(F)F)C(=O)N[C@H]2CCOC[C@H]2O)o1         0.32

Now look at this one.
Entry under test: Cc1nnc(C[C@H](C[C@H](O)CN2CCN(C(C)(C)c3ncc(-c4ccc(Cl)cc4)o3)C[C@H]2C(=O)NCC(F)(F)F)C(=O)N[C@H]2CCOC[C@H]2O)o1 . Its IC50 was 0.01

====

Test system: MT4
Assay: Concentration required to inhibit spread of native HIV-1(K-60) protease obtained from PI-resistant clinical isolate in MT-4 human T-lymphoid cells
Type: functional
Settings: read-out: CIC95
We begin with a simple list: items and their reported IC95.
All answers are understood in nM, so give the number only.

Compound Smiles	Measured Attribute	Readout Unit	Measurement
O=C(N[C@H]1CCOC[C@H]1O)[C@H](Cc1nnco1)C[C@H](O)CN1CCN(Cc2ccc(-c3ccc(Cl)cc3)o2)C[C@H]1C(=O)NCC(F)(F)F	IC95	nM	63

Consider CC(C)(c1ncc(-c2ccc(F)cc2)o1)N1CCN(C[C@@H](O)C[C@@H](Cc2nnco2)C(=O)N[C@H]2CCOC[C@H]2O)[C@H](C(=O)NCC(F)(F)F)C1 . Its measured IC95 is 125
